In what follows, each item is paired with its IC50 for Protein skinhead-1 (Caenorhabditis elegans).

[[record]]
record_smiles = "O=C(/C=C/c1ccc(Br)cc1)c1ccc(NC2=NCCCS2)cc1"
recorded_result = "9.41 µM"


Reading of IC50 for COc1cc(CNC(C)(C)CO)cc(Br)c1OCc1ccc(Cl)cc1 with Protein skinhead-1 (Caenorhabditis elegans): 19.5 µM

Reading of IC50 for Clc1ccc(Cn2cc(Br)cn2)cc1Cl with Protein skinhead-1 (Caenorhabditis elegans): 30.6 µM

Reading of IC50 for Brc1ccc(-c2nnc(-c3ccco3)o2)cc1 with Protein skinhead-1 (Caenorhabditis elegans): 13.9 µM
